pIC50: −log10 of the molar value.
Literature survey of pIC50 (system: Beta-secretase 2 (Homo sapiens, UniProt Q9Y5Z0)).
Decision: pIC50 >= 7 yields met, all other cases yield not met.

Use these answered entries as a reference point.
INSERT INTO assay_data (smiles_data, category) VALUES
  ('C[C@]1(c2cc(NCc3nn(C(F)F)cc3Cl)ccc2F)N=C(N)COC[C@@H]1F', 'met'),
  ('C#C[C@H](C)Oc1cnc(C(=O)Nc2ccc(F)c([C@@]3(C)N=C(N)[C@@]4(CF)CC[C@@H]3S4(=O)=O)c2)cn1', 'met');

# input Could you verify whether the entry "Cc1cnc([C@H]2C[C@H]3CSC(N)=N[C@@]3(c3ccc(F)cc3F)CO2)o1" shows pIC50 of no less than 7?
# output not met

# input Determine whether this molecule has pIC50 no lower than 7: "Cc1cc(Cl)cnc1C(=O)Nc1ccc(F)c([C@@]2(C)N=C(N)N(C)C(=O)C2(C)C)c1"
# output met

# input Entry "C[C@]1(c2cc(Nc3ncc(F)c4cc(Cl)cnc34)ccc2F)N=C(N)[C@@]2(CF)CC[C@@H]1S2(=O)=O" : is its pIC50 no less than 7?
# output met
